# methodSummary: Pharmacokinetic studies in rats
# experimentalConditions: rat, in vivo, 3 mg/kg, 3 mg/kg in EtOH/Solutol/H2O formulation, Rat 3, read-out: AUC
measuredParameter: AUC (ng·h/mL)

a: N#Cc1ccc(Oc2cc(Cl)cc(Cl)c2)c(S(=O)(=O)N2CCNC(=O)C2)c1 [Compound C1, reference compound]
b: [2H]c1c(Cl)c([2H])c(Oc2c([2H])c([2H])c(C#N)c([2H])c2S(=O)(=O)N2CCNC(=O)C2)c([2H])c1Cl
Q: From the recorded data, which exceeds the other in AUC: a or b ? Selection: enter the item's label.
Result: b

* * *

# methodSummary: Pharmacokinetic studies in rats
# experimentalConditions: rat, in vivo, 3 mg/kg, 3 mg/kg in EtOH/Solutol/H2O formulation, Rat 1
measuredParameter: half-life (h)

I: N#Cc1ccc(Oc2cc(Cl)cc(Cl)c2)c(S(=O)(=O)N2CCNC(=O)C2)c1 [Compound C1, reference compound]
II: [2H]c1c(Cl)c([2H])c(Oc2c([2H])c([2H])c(C#N)c([2H])c2S(=O)(=O)N2CCNC(=O)C2)c([2H])c1Cl
Q: Two entries are listed, I and II . Which one carries the higher half-life? Returns: label corresponding to the selected item.
Result: I

* * *

# methodSummary: Pharmacokinetic studies in rats
# experimentalConditions: rat, in vivo, 3 mg/kg, 3 mg/kg in EtOH/Solutol/H2O formulation, Rat 2
measuredParameter: Tmax (h)

>>> measuredvalue("[2H]c1c(Cl)c([2H])c(Oc2c([2H])c([2H])c(C#N)c([2H])c2S(=O)(=O)N2CCNC(=O)C2)c([2H])c1Cl")
4
>>> measuredvalue("N#Cc1ccc(Oc2cc(Cl)cc(Cl)c2)c(S(=O)(=O)N2CCNC(=O)C2)c1 [Compound C1, reference compound]")
4

* * *

# methodSummary: Pharmacokinetic studies in rats
# experimentalConditions: rat, in vivo, 3 mg/kg, 3 mg/kg in EtOH/Solutol/H2O formulation, Rat 2
measuredParameter: half-life (h)

1: [2H]c1c(Cl)c([2H])c(Oc2c([2H])c([2H])c(C#N)c([2H])c2S(=O)(=O)N2CCNC(=O)C2)c([2H])c1Cl
2: N#Cc1ccc(Oc2cc(Cl)cc(Cl)c2)c(S(=O)(=O)N2CCNC(=O)C2)c1 [Compound C1, reference compound]
Q: Please indicate which entry, 1 or 2 , has the lower recorded half-life value. Output the label that corresponds to your choice.
Result: 1

* * *

# methodSummary: Pharmacokinetic studies in rats
# experimentalConditions: rat, in vivo, 3 mg/kg, 3 mg/kg in EtOH/Solutol/H2O formulation, Rat 3
measuredParameter: Tmax (h)

A: N#Cc1ccc(Oc2cc(Cl)cc(Cl)c2)c(S(=O)(=O)N2CCNC(=O)C2)c1 [Compound C1, reference compound]
B: [2H]c1c(Cl)c([2H])c(Oc2c([2H])c([2H])c(C#N)c([2H])c2S(=O)(=O)N2CCNC(=O)C2)c([2H])c1Cl [Compound 36]
Q: Lower Tmax: A or B ? // caller expects the label of the chosen entry
Result: B
(B: 0.3 h, A: 2 h)

* * *

# methodSummary: Pharmacokinetic studies in rats
# experimentalConditions: rat, in vivo, 3 mg/kg, 3 mg/kg in EtOH/Solutol/H2O formulation, Rat 1
measuredParameter: Cmax (ng/mL)

1: N#Cc1ccc(Oc2cc(Cl)cc(Cl)c2)c(S(=O)(=O)N2CCNC(=O)C2)c1 [Compound C1, reference compound]
2: [2H]c1c(Cl)c([2H])c(Oc2c([2H])c([2H])c(C#N)c([2H])c2S(=O)(=O)N2CCNC(=O)C2)c([2H])c1Cl
Q: For the pair 1 and 2 , which entry has the numerically smaller recorded Cmax? Reply briefly: the label of your chosen item.
Result: 1
(1: 34.4 ng/mL, 2: 166 ng/mL)

* * *

# methodSummary: Pharmacokinetic studies in rats
# experimentalConditions: rat, in vivo, 3 mg/kg, 3 mg/kg in EtOH/Solutol/H2O formulation, Rat 1, read-out: AUCnorm
# Description: Pharmacokinetic properties of 4-(3,5-dichloro-2,4,6-trideuteriumphenoxy)-3-(3-oxo-piperazine-1-sulfonyl)-2,5,6-trideuteriumbenzonitrile 36 and 4-(3,5-dichlorophenoxy)-3-(3-oxo-piperazine-1-sulfonyl)benzonitrile C1 were determined using rats. Animals were randomized into two groups, each having 3 rats. […]
measuredParameter: AUC (ng·h/mL)

1: [2H]c1c(Cl)c([2H])c(Oc2c([2H])c([2H])c(C#N)c([2H])c2S(=O)(=O)N2CCNC(=O)C2)c([2H])c1Cl
2: N#Cc1ccc(Oc2cc(Cl)cc(Cl)c2)c(S(=O)(=O)N2CCNC(=O)C2)c1 [Compound C1, reference compound]
Q: Which entry shows the lesser value of AUC here, 1 or 2 ? State the label of the item chosen.
Result: 2

* * *

# methodSummary: Pharmacokinetic studies in rats
# experimentalConditions: rat, in vivo, 3 mg/kg, 3 mg/kg in EtOH/Solutol/H2O formulation, Rat 3
measuredParameter: Cmax (ng/mL)

P: N#Cc1ccc(Oc2cc(Cl)cc(Cl)c2)c(S(=O)(=O)N2CCNC(=O)C2)c1 [Compound C1, reference compound]
Q: [2H]c1c(Cl)c([2H])c(Oc2c([2H])c([2H])c(C#N)c([2H])c2S(=O)(=O)N2CCNC(=O)C2)c([2H])c1Cl
Q: // which entry has the larger Cmax value, P or Q ? Reply briefly: the label of your chosen item.
Result: Q

* * *

# methodSummary: Pharmacokinetic studies in rats
# experimentalConditions: rat, in vivo, 3 mg/kg, 3 mg/kg in EtOH/Solutol/H2O formulation, Rat 2, read-out: AUC
# Description: Pharmacokinetic properties of 4-(3,5-dichloro-2,4,6-trideuteriumphenoxy)-3-(3-oxo-piperazine-1-sulfonyl)-2,5,6-trideuteriumbenzonitrile 36 and 4-(3,5-dichlorophenoxy)-3-(3-oxo-piperazine-1-sulfonyl)benzonitrile C1 were determined using rats. Animals were randomized into two groups, each having 3 rats. […]
measuredParameter: AUC (ng·h/mL)

I: N#Cc1ccc(Oc2cc(Cl)cc(Cl)c2)c(S(=O)(=O)N2CCNC(=O)C2)c1 [Compound C1, reference compound]
II: [2H]c1c(Cl)c([2H])c(Oc2c([2H])c([2H])c(C#N)c([2H])c2S(=O)(=O)N2CCNC(=O)C2)c([2H])c1Cl [Compound 36]
Q: For I and II , which recorded AUC is lower? Choose, then provide that item's label.
Result: II
(II: 272 ng·h/mL, I: 450 ng·h/mL)

* * *

# methodSummary: Pharmacokinetic studies in rats
# experimentalConditions: rat, in vivo, 3 mg/kg, 3 mg/kg in EtOH/Solutol/H2O formulation, Rat 1
measuredParameter: Tmax (h)

>>> measuredvalue("N#Cc1ccc(Oc2cc(Cl)cc(Cl)c2)c(S(=O)(=O)N2CCNC(=O)C2)c1 [Compound C1, reference compound]")
2
>>> measuredvalue("[2H]c1c(Cl)c([2H])c(Oc2c([2H])c([2H])c(C#N)c([2H])c2S(=O)(=O)N2CCNC(=O)C2)c([2H])c1Cl")
2
